tested target: T1, human c-Met ECD-Fc-Flis (human)
T1 construct: c-Met ECD fused to Fc with flag- and His-tag at the C-terminus; also called human c-Met extracellular domain (ECD)-Fc-Flis fusion; human c-Met-Flis-Fc ECD
T1 sequence (chain, as listed by the source): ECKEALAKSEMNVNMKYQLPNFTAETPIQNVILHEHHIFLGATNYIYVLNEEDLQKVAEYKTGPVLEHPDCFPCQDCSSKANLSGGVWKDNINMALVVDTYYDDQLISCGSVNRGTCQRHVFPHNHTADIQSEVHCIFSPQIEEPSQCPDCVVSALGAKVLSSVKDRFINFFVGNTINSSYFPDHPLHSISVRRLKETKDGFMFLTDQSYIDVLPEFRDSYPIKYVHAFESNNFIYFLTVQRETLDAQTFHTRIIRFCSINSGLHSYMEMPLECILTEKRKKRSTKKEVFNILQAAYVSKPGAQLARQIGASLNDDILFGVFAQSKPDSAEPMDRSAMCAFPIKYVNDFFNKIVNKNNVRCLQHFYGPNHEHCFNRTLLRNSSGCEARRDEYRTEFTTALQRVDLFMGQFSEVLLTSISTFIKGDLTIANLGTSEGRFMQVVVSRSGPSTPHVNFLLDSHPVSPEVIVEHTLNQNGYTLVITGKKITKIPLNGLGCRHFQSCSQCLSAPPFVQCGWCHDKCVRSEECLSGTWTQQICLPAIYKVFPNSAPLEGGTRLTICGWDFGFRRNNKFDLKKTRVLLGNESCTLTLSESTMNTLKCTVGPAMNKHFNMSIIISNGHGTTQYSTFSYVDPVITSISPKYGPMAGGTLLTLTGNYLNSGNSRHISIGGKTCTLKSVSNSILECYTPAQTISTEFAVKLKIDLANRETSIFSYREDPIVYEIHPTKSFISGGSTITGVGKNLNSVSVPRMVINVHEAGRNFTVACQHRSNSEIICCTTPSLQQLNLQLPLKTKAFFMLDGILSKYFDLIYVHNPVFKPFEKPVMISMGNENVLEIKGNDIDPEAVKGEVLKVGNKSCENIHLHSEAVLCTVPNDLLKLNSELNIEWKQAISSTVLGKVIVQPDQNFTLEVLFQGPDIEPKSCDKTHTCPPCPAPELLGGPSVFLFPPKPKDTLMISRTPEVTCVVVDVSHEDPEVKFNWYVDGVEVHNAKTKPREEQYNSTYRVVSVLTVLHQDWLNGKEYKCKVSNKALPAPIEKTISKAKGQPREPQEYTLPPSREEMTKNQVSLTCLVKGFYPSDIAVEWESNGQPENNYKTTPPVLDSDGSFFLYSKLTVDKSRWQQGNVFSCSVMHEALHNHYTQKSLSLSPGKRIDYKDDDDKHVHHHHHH
measurement description: HGF-blocking ELISA: HGF signal on coated c-Met ECD-Fc-Flis; Ab 125000.00 ng/mL
parameter: AVG A450 nm (A450 nm)
Could you give me the number in A450 nm? Just the number is fine.

Sample records with AVG A450 nm:
- D11-C27G3 (antibody, human IgG2, kappa, V domains shown, Human engineered IgG2 kappa c-Met antibody; also called D11-27G3; D11-C27G3 IgG2) VH: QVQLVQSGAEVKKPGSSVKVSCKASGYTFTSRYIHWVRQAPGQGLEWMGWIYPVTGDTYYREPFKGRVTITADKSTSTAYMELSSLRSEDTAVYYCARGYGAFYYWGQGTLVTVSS VL: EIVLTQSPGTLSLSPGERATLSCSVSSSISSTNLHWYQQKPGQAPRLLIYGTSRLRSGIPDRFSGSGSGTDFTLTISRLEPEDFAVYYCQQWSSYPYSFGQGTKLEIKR: 0.89
- D11-S17Y (antibody, human IgG2, kappa, V domains shown, Human engineered IgG2 kappa c-Met antibody; also called D11-S17Y IgG2) VH: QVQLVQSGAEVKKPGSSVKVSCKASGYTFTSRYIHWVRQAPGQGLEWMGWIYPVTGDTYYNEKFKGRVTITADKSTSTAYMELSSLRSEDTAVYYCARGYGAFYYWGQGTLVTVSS VL: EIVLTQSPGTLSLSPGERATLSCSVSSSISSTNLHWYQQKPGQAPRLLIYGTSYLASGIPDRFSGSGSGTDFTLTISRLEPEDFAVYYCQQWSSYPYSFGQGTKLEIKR: 1.35

Then there is this binder:
Please give the measured AVG A450 nm for this binder: C8-H241 (antibody, human IgG2, kappa, V domains shown, Named IgG4 kappa; also called Mab C8-H241) VH: QVQLVQSGAEVKKPGASVKVSCKASGYTFTDYYMHWVRQAPGQGLEWMGRVNPNRRGTTYNQKFEGRVTMTTDTSTSTAYMELRSLRSDDTAVYYCARANWLDYWGQGTTVTVSS VL: DIQMTQSPSSLSASVGDRVTITCSVSSSVSSIYLHWYQQKPGKAPKLLIYSTSNLASGVPSRFSGSGSGTDFTLTISSLQPEDFATYYCQVYSGYPLTFGGGTKVEIKR
0.69
